System: Antitargets
Assay: Fam108b inhibitors and proteome off-target selectivity – biochemical, gel-based ABPP, recombinant soluble Fam108b, HTS hits, complex proteome, late-stage follow-up (AID 588651);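 further: Fam108b spiked into mouse brain membrane proteome; tested at 20 µM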
Details: FP-rhodamine labeling in proteome
The source made the active and inactive calls. No stated cut-off is given here; in the data, active means inhibition above about 65%; inactive means the rest.
observable: outcome

Cc1c(O)ccc(C=NNc2nc(-c3cccnc3)nc3ccccc23)c1O = active
CC1(C)CC(=O)C2=C(C1)c1c(ccc3ccccc13)NC2c1cc([N+](=O)[O-])cc([N+](=O)[O-])c1O (centres undefined) = inactive
O=C(CCCSc1ccccc1)Nc1nc(-c2ccco2)c(-c2ccco2)s1 = inactive
O=c1cc(-c2ccc(O)c(-c3c(O)cc(O)c4c(=O)cc(-c5ccc(O)cc5)oc34)c2)oc2cc(O)cc(O)c12 = active
COc1cc2c(cc1NC(=S)Nc1cccc(C(F)(F)F)c1)oc1ccccc12 = inactive
Oc1nc(Nc2cccc(Cl)c2)sc1/C=C1\C=Nc2ccccc21 = active
CCN(CC)S(=O)(=O)c1cc(NC(=O)COC(=O)c2sc3ccccc3c2Cl)ccc1C = inactive
O=S(=O)(c1cc(O)ccc1O)c1cccc2c(S(=O)(=O)c3cc(O)ccc3O)cccc12 = inactive
Cc1ccc(C)c(-n2c3nc(=O)[nH]c(=O)c-3cc3cc([N+](=O)[O-])ccc32)c1 = inactive
Cc1nc2scc(-c3ccc(Cl)cc3)c2c(=O)o1 = inactive
COc1ccc(S(=O)(=O)/N=C2\C=C(Nc3ccc(O)cc3)C(=O)c3ccccc32)cc1 = inactive
O=C(Nc1ccc(-c2csc(Nc3ccccc3)n2)cc1)c1cc([N+](=O)[O-])cc(C(F)(F)F)c1 = inactive
CCc1ccc(S(=O)(=O)N=C2C=C(Sc3ncn[nH]3)C(=O)c3ccccc32)cc1 = inactive
CCN(CC)c1ccc(C2Nc3cccc4cccc(c34)N2)c(O)c1 = inactive
Cc1cc(Nc2ccc(Cl)cc2)nc(NCc2ccccc2)n1 = inactive
CN(C)S(=O)(=O)c1cccc(NC(=O)COC(=O)c2cc(-c3cccc(Br)c3)nc3ccccc23)c1 = inactive
O=C(O)C1Nc2ccc(Br)cc2C2C=CCC12 (centres undefined) = inactive
Nc1ccc2nc(-c3cccc(-c4nc5ccc(N)cc5[nH]4)c3)[nH]c2c1 = inactive
Oc1ccc(C=NNc2ccnc3cc(Cl)ccc23)c(O)c1O = active

Provenance of the data: PubChem BioAssay AID588651
